Listing of entries alongside the reported inhibition at 10 µM.
Target: HIV protease (Human immunodeficiency virus type 1 group M subtype B)
Construct: and purified protease
Assay: HIV Protease Assay
Format: biochemical
Settings: pH 5.5, 10 μM inhibitor, 4% DMSO, 450 μM substrate, pH 5.5, 30 minutes at 37° C., RP-HPLC; read-out: HIV Protease % Inhibition at 10 μM
Give the quantity in %, number only.

Look over these answered cases.
{"COMPOUND": "CC(C)(C)OC(=O)N[C@@H](Cc1ccccc1)[C@H](O)CNC[C@@H](O)[C@H](Cc1ccccc1)NC(=O)[C@@H](NC(=O)OCc1nc2ccccc2o1)C(C)(C)C [Compound 257]", "inhibition at 10 µM / %": 99}
{"COMPOUND": "CC(C)[C@H](NC(=O)[C@H](C)O)C(=O)N[C@@H](Cc1ccccc1)[C@H](O)CNC[C@@H](O)[C@H](Cc1ccccc1)NC(=O)OC(C)(C)C [Compound 225]", "inhibition at 10 µM / %": 99}

QUERY: Fill blank: measured inhibition at 10 µM of the compound CC(C)(C)OC(=O)N[C@@H](Cc1ccccc1)C(=O)N[C@@H](Cc1ccccc1)[C@H](O)CNC[C@@H](O)[C@H](Cc1ccccc1)NC(=O)[C@H](Cc1ccccc1)NC(=O)OC(C)(C)C [Compound 38] is ____.
RESULT: 3

QUERY: For CC(C)(C)OC(=O)N[C@@H](Cc1ccccc1)[C@H](O)CNC[C@@H](O)[C@H](Cc1ccc(OCC(=O)N2CCOCC2)cc1)NC(=O)OC(C)(C)C [Compound 226] then?
RESULT: 98

QUERY: For C[C@H](O)[C@H](NC(=O)OCc1ccccc1)C(=O)N[C@@H](Cc1ccccc1)[C@H](O)CNC[C@@H](O)[C@H](Cc1ccccc1)NC(=O)OC(C)(C)C (relative stereo) [Compound 205] then?
RESULT: 98

---

Target: HIV protease (Human immunodeficiency virus type 1 group M subtype B)
Construct: and purified protease
Assay: HIV Protease Assay
Format: biochemical
Details: pH 5.5, 10 μM inhibitor, 4% DMSO, 450 μM substrate, pH 5.5, 30 minutes at 37° C., RP-HPLC; read-out: HIV Protease % Inhibition at 10 μM
Listing of entries alongside the reported inhibition at 10 µM.
Give the quantity in %, number only.

Look over these answered cases.
{"MOLECULE": "CON=C(C(=O)N[C@@H](Cc1ccccc1)[C@H](O)CNC[C@@H](O)[C@H](Cc1ccccc1)NC(=O)OC(C)(C)C)C(C)(C)C [Compound 296]", "UNIT ABBREVIATION": "%", "inhibition at 10 µM": 37}
{"MOLECULE": "CC(C)(C)OC(=O)N[C@@H](Cc1ccccc1)[C@H](O)CNC[C@@H](O)[C@H](Cc1ccc(OCCCc2nc3ccccc3o2)cc1)NC(=O)OC(C)(C)C [Compound 244]", "UNIT ABBREVIATION": "%", "inhibition at 10 µM": 100}
{"MOLECULE": "CC(C)[C@H](NC(=O)OCc1ncc[nH]1)C(=O)N[C@@H](Cc1ccccc1)[C@H](O)CNC[C@@H](O)[C@H](Cc1ccccc1)NC(=O)OC(C)(C)C (relative stereo) [Compound 249]", "UNIT ABBREVIATION": "%", "inhibition at 10 µM": 100}
{"MOLECULE": "COC(=O)N[C@H](C(=O)N[C@@H](Cc1ccccc1)[C@H](O)CNC[C@@H](O)[C@H](Cc1ccccc1)NC(=O)[C@](C)(O)C(C)(C)C)C(C)(C)C (relative stereo) [Compound 383]", "UNIT ABBREVIATION": "%", "inhibition at 10 µM": 99}
{"MOLECULE": "CC(C)(C)OC(=O)N[C@@H](Cc1ccccc1)[C@H](O)CNC[C@H](O)[C@H](Cc1ccccc1)NC(=O)OC(C)(C)C [Compound 5]", "UNIT ABBREVIATION": "%", "inhibition at 10 µM": 41}

QUERY: Fill blank: measured inhibition at 10 µM of the molecule CC(C)(C)OC(=O)N[C@@H](Cc1ccccc1)[C@H](O)CNC[C@@H](O)[C@H](Cc1ccccc1)NC(=O)OC(C)(C)CCCNCc1ccccc1 [Compound 153] is ____.
RESULT: 65

---

Listing of entries alongside the reported inhibition at 10 µM.
Biological target: HIV protease (Human immunodeficiency virus type 1 group M subtype B)
Construct: and purified protease
Test: HIV Protease Assay
Type: biochemical
Conditions: pH 5.5, 10 μM inhibitor, 4% DMSO, 450 μM substrate, pH 5.5, 30 minutes at 37° C., RP-HPLC; read-out: HIV Protease % Inhibition at 10 μM
Give the quantity in %, number only.

Look over these answered cases.
{"MOLECULE": "CC(C)[C@H](NC(=O)OCc1nc2ccccc2n1C)C(=O)N[C@@H](Cc1ccccc1)[C@H](O)CNC[C@@H](O)[C@H](Cc1ccccc1)NC(=O)OC(C)(C)C [Compound 170]", "OBSERVABLE": "inhibition at 10 µM", "EXPERIMENTAL VALUE": 100}
{"MOLECULE": "CC(C)(C)OC(=O)N[C@@H](Cc1ccccc1)[C@H](O)CNC[C@@H](O)[C@H](Cc1ccccc1)NC(=O)[C@@H](O)C(C)(C)C [Compound 335]", "OBSERVABLE": "inhibition at 10 µM", "EXPERIMENTAL VALUE": 89}

QUERY: Fill blank: measured inhibition at 10 µM of the molecule CC(C)[C@H](NC(=O)N(C)Cc1ccccn1)C(=O)N[C@@H](Cc1ccccc1)[C@H](O)CNC[C@@H](O)[C@H](Cc1ccccc1)NC(=O)[C@@H](NC(=O)N(C)Cc1ccccn1)C(C)C [Compound 75] is ____.
RESULT: 100

---

Listing of entries alongside the reported inhibition at 10 µM.
Molecular target: HIV protease (Human immunodeficiency virus type 1 group M subtype B, UniProt P04585)
Construct: and purified protease
Assay: HIV Protease Assay
Assay type: biochemical
Conditions: pH 5.5, 10 μM inhibitor, 4% DMSO, 450 μM substrate, pH 5.5, 30 minutes at 37° C., RP-HPLC; read-out: HIV Protease % Inhibition at 10 μM
Give the quantity in %, number only.

{"MOLECULE": "CC(C)(C)OC(=O)N[C@@H](Cc1ccccc1)[C@H](O)CNC[C@@H](O)[C@H](Cc1ccccc1)NS(=O)(=O)C(C)(C)C", "inhibition at 10 µM, %": 35}

Now look at this one.
QUERY: Fill blank: measured inhibition at 10 µM of the molecule CC(C)(C)NC(=O)N[C@@H](Cc1ccccc1)[C@H](O)CNC[C@@H](O)[C@H](Cc1ccccc1)NC(=O)NC(C)(C)C is ____.
RESULT: 81

---

Listing of entries alongside the reported inhibition at 10 µM.
Biological target: HIV protease (Human immunodeficiency virus type 1 group M subtype B, UniProt P04585)
Construct: and purified protease
Experiment: HIV Protease Assay
Assay type: biochemical
Settings: pH 5.5, 10 μM inhibitor, 4% DMSO, 450 μM substrate, pH 5.5, 30 minutes at 37° C., RP-HPLC; read-out: HIV Protease % Inhibition at 10 μM
Experimental: An HIV protease standard assay was performed in a 60 μl reaction medium containing 50 mM sodium acetate, pH 5.5, 100 μg/ml bovine serum albumen,450 μM substrate (H2 N-Val-Ser-Gln-Asn-(β-naphthyl-alanine)-Pro-Val-Ile-OH), and purified protease. The reaction medium was incubated for 30 minutes at 37° C., quenched by the addition of 140 μl 5% H3 PO4, then analyzed by reverse phase HPLC using UV220 detection. In a typical control assay, 7% of the substrate was hydrolyzed. […]
Give the quantity in %, number only.

Look over these answered cases.
{"COMPOUND": "CO[C@H](CNC[C@@H](O)[C@H](Cc1ccccc1)NC(=O)OC(C)(C)C)[C@H](Cc1ccccc1)NC(=O)OC(C)(C)C", "MEASURED TARGET": "HIV protease (Human immunodeficiency virus type 1 group M subtype B, UniProt P04585)", "UNIT ABBREVIATION": "%", "inhibition at 10 µM": 30}
{"COMPOUND": "CC(C)(C)OC(=O)N[C@@H](Cc1ccccc1)[C@H](O)CNC[C@@H](O)[C@H](Cc1ccccc1)NC(=O)[C@H](Cc1ccccc1)NC(=O)OCc1ccccc1 (relative stereo)", "MEASURED TARGET": "HIV protease (Human immunodeficiency virus type 1 group M subtype B, UniProt P04585)", "UNIT ABBREVIATION": "%", "inhibition at 10 µM": 91}
{"COMPOUND": "CC(C)(C)OC(=O)N[C@@H](Cc1ccccc1)[C@H](O)CNC[C@@H](O)[C@H](Cc1ccccc1)NC(=O)OC(C)(C)CCCNC(=O)OCc1ccccc1", "MEASURED TARGET": "HIV protease (Human immunodeficiency virus type 1 group M subtype B, UniProt P04585)", "UNIT ABBREVIATION": "%", "inhibition at 10 µM": 93}
{"COMPOUND": "CC(C)(C)OC(=O)N[C@@H](Cc1ccccc1)[C@H](O)CNC[C@@H](O)[C@H](Cc1ccccc1)NC(=O)OC1(C)CCOC1 (some centres unmarked)", "MEASURED TARGET": "HIV protease (Human immunodeficiency virus type 1 group M subtype B, UniProt P04585)", "UNIT ABBREVIATION": "%", "inhibition at 10 µM": 100}
{"COMPOUND": "CC(C)[C@H](NC(=O)OCc1ccc2ccccc2n1)C(=O)N[C@@H](Cc1ccccc1)[C@H](O)CNC[C@@H](O)[C@H](Cc1ccccc1)NC(=O)OC(C)(C)C (relative stereo)", "MEASURED TARGET": "HIV protease (Human immunodeficiency virus type 1 group M subtype B, UniProt P04585)", "UNIT ABBREVIATION": "%", "inhibition at 10 µM": 100}
{"COMPOUND": "CC(C)(C)OC(=O)N[C@@H](Cc1ccccc1)[C@H](O)CN[C@@H](Cc1ccccc1)C(O)CNC(=O)OCc1ccccc1 (some centres unmarked)", "MEASURED TARGET": "HIV protease (Human immunodeficiency virus type 1 group M subtype B, UniProt P04585)", "UNIT ABBREVIATION": "%", "inhibition at 10 µM": 0}

QUERY: Fill blank: measured inhibition at 10 µM of the compound CN(CC(=O)[C@H](Cc1ccccc1)NC(=O)OC(C)(C)C)C[C@@H](O)[C@H](Cc1ccccc1)NC(=O)OC(C)(C)C is ____.
RESULT: 10

QUERY: For COC(=O)N[C@H](C(=O)N[C@@H](Cc1ccccc1)[C@H](O)CNC[C@@H](O)[C@H](Cc1ccccc1)NC(=O)OC(C)(C)C)C(C)C (relative stereo) then?
RESULT: 99

QUERY: For CC(C)(C)NC(=S)N[C@@H](Cc1ccccc1)[C@H](O)CNC[C@@H](O)[C@H](Cc1ccccc1)NC(=O)OC(C)(C)C then?
RESULT: 92

QUERY: For CC(C)[C@H](NC(=O)OCc1nc2ccccc2c(=O)[nH]1)C(=O)N[C@@H](Cc1ccccc1)[C@H](O)CNC[C@@H](O)[C@H](Cc1ccccc1)NC(=O)OC(C)(C)C (relative stereo) then?
RESULT: 98

QUERY: For CC(C)(C)OC(=O)N[C@@H](Cc1ccccc1)[C@H](O)CNC[C@@H](O)[C@H](Cc1ccccc1)NC(=O)OC(CO)c1cccnc1 (some centres unmarked) then?
RESULT: 67
